# experimental-system: β-secretase (Rattus norvegicus (Rat), UniProt P56819)
# assay-comment: In vivo inhibition of β-secretase: Aβ reduction in rat CSF and brain
# experimental-conditions: brain
Assignment: determine reported % Aβ reduction in rat brain at 10 mpk for the given compounds.
Give bare numbers, in %.

{"query-smiles": "C#C[C@H](C)Oc1cnc(/C(F)=C/c2ccc(F)c([C@@]3(C)N=C(N)[C@@]4(CF)CC[C@@H]3S4(=O)=O)c2)cn1", "recorded-value": 35}
{"query-smiles": "CC1(C)C(N)=N[C@@]2(c3ccc(/C=C(\\F)c4ccc(C#N)cn4)cc3F)COC[C@H]2S1(=O)=O", "recorded-value": 60}
{"query-smiles": "CN1C(N)=N[C@](C)(c2cc(/C=C(\\F)c3cnc(OCc4ncco4)cn3)cc(F)c2F)CS1(=O)=O", "recorded-value": 26}

Hi team, please reply with % Aβ reduction in rat brain at 10 mpk for each item in this list.
1. C#C[C@H](C)Oc1cnc(/C(F)=C/c2ccc(F)c([C@@]3(C)N=C(N)N(C)S(=O)(=O)C3(C)C)c2)cn1
2. Cc1noc(COc2cnc(/C(F)=C/c3ccc(F)c([C@]4(C)CS(=O)(=O)N(C)C(N)=N4)c3)cn2)n1
3. CN1C(N)=N[C@](C)(c2cc(/C=C(\F)c3ccc(C#N)cn3)ccc2F)C2(CC2)S1(=O)=O

A)
1: 43; 2: 16; 3: 70

###

# experimental-system: BACE1 (Homo sapiens (Human))
# assay-comment: In vitro enzymatic BACE1 FRET assay
# Assay type: biochemical
# experimental-conditions: read-out: BACE1 Enzyme IC50
# Sequence (P56817 46-501): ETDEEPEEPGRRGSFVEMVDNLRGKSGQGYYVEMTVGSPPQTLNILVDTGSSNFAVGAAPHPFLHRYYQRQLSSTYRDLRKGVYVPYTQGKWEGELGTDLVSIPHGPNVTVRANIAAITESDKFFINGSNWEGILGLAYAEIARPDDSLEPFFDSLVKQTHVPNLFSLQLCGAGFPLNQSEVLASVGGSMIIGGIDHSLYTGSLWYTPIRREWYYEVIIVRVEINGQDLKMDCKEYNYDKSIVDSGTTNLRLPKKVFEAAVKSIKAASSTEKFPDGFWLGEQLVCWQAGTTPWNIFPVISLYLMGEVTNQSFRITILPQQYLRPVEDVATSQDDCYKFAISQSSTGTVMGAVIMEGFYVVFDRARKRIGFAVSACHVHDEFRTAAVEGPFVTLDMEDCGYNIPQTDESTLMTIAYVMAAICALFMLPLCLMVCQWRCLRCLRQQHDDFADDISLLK
Friendly reminder: IC50 below 7 nM is 1, at or above is 0.

Recorded results for 6 compounds are shown here.
{"compound": "CN1C(N)=N[C@](C)(c2cc(/C=C(\\F)c3cnc(Cl)cn3)ccc2F)C2(CC2)S1(=O)=O", "category": 0}
{"compound": "Cc1cc(COc2cnc(/C(F)=C/c3ccc(F)c([C@@]4(C)N=C(N)N(C)S(=O)(=O)C45CC5)c3)cn2)no1", "category": 0}
{"compound": "CN1C(N)=N[C@](C)(c2cc(/C=C(\\F)c3ccc(C#N)cn3)ccc2F)CS1(=O)=O", "category": 1}
{"compound": "C[C@]1(c2cc(/C=C(\\F)c3ccc(C#N)cn3)ccc2F)N=C(N)C2(CF)CC[C@@H]1S2(=O)=O (stereo in doubt)", "category": 1}
{"compound": "C[C@@H]1COc2nc(/C(F)=C/c3ccc(F)c([C@]4(C)CS(=O)(=O)N(C)C(N)=N4)c3)ncc2O1", "category": 0}
{"compound": "CN1C(N)=N[C@](C)(c2cc(/C=C(\\F)c3ccc(F)cn3)ccc2F)CS1(=O)=O", "category": 0}

Q) Does Cc1noc(COc2cnc(/C(F)=C/c3ccc(F)c([C@@]4(C)N=C(N)[C@@]5(CF)CC[C@@H]4S5(=O)=O)c3)cn2)n1 have IC50 strictly under 7 nM?
A) 0

Q) Check if IC50 falls below 7 nM for C[C@]1(c2cc(/C=C(\F)c3ccc(Br)cn3)ccc2F)N=C(N)C2(CF)CC[C@@H]1S2(=O)=O (stereo in doubt) .
A) 1

Q) Input C#C[C@H](C)Oc1cnc(/C(F)=C/c2ccc(F)c([C@]3(C)CS(=O)(=O)N(C)C(N)=N3)c2)cn1 ; condition: IC50 strictly below 7 nM. Does it hold?
A) 1

Q) Strictly below 7 nM in IC50? CC1(C)C(N)=N[C@](C)(c2cc(/C=C/c3ccc(Cl)cc3)ccc2F)CS1(=O)=O
A) 0

Q) Dear reviewer, please state whether CN1C(N)=N[C@](C)(c2cc(/C=C(\F)c3ncc4c(n3)OCCO4)ccc2F)CS1(=O)=O has IC50 strictly beneath 7 nM.
A) 0

Q) Say whether its IC50 is strictly beneath 7 nM. Entry: C#CCOc1cnc(/C(F)=C/c2ccc(F)c([C@]3(CF)CS(=O)(=O)C(C)(C)C(N)=N3)c2)cn1
A) 1

Q) Is it true that IC50 reported for CN1C(N)=N[C@](C)(c2cc(/C=C(\F)c3cnc(Cl)cn3)ccc2F)C(C)(C)S1(=O)=O is less than 7 nM?
A) 0

###

# experimental-system: BACE1 (Homo sapiens (Human), UniProt P56817)
# assay-comment: In vitro BACE1 cell-based assay (Aβ40 in conditioned medium of cells stably expressing APP, HTRF)
# experimental-conditions: Aβ40 in conditioned media after 24 h incubation
# Sequence (P56817 46-501, species assumed): as the sequence (P56817 46-501) above
The label y is reserved for IC50 strictly under 0.006 µM; n covers values equal to or above it.

Example cases with answers are listed next.
{"query-smiles": "C=CCOc1cnc(/C(F)=C/c2ccc(F)c([C@@]3(C)N=C(N)[C@@]4(CF)CC[C@@H]3S4(=O)=O)c2)cn1", "category": "n"}
{"query-smiles": "CC1(C)C(N)=N[C@](C)(c2cc(/C=C(\\F)c3cnc(OCC4CCC4)cn3)ccc2F)CS1(=O)=O", "category": "n"}
{"query-smiles": "CN1C(N)=N[C@](C)(c2cc(/C=C(\\F)c3cnc(OCc4ncco4)cn3)ccc2F)CS1(=O)=O", "category": "y"}
{"query-smiles": "CN1C(N)=N[C@](C)(c2cc(/C=C(\\F)c3cnc(OCC(F)(F)C(F)F)cn3)ccc2F)CS1(=O)=O", "category": "n"}

Q) Does this compound meet the criterion IC50 < 0.006 µM? CN1C(N)=N[C@](C)(c2cc(/C=C(\F)c3cc4c(cn3)OCCC4)ccc2F)CS1(=O)=O
A) n

###

# experimental-system: UniProt:P07339
# Sequence (P07339 65-412, species assumed): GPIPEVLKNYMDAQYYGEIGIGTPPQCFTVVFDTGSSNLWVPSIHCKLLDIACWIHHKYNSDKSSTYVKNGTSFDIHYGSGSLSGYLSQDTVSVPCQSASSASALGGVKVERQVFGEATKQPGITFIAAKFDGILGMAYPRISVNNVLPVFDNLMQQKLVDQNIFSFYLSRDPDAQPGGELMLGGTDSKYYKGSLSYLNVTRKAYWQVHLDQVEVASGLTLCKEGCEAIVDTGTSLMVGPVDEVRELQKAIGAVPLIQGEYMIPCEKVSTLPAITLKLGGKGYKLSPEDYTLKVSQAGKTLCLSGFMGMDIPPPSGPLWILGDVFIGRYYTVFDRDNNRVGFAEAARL
# assay-comment: In vitro enzymatic Cathepsin D (CatD) FRET assay
# Assay type: biochemical
# experimental-conditions: read-out: Cat D Enzyme IC50
value-type: pIC50
One number for each entry, as −log10 of the molar value.

Here is how some compounds turned out for pIC50.
{"compound": "CC1(C)C(N)=N[C@](C)(c2cc(/C=C(\\F)c3cnc(OCC(F)(F)F)cn3)ccc2F)CS1(=O)=O", "value-type": "pIC50", "recorded-value": 3.66}
{"compound": "CC#CCOc1cnc(/C(F)=C/c2ccc(F)c([C@@]3(C)N=C(N)[C@@]4(CF)CC[C@@H]3S4(=O)=O)c2)cn1", "value-type": "pIC50", "recorded-value": 4.19}
{"compound": "C#C[C@H](C)Oc1cnc(/C(F)=C/c2ccc(F)c([C@]3(C)CS(=O)(=O)C(C)(C)C(N)=N3)c2)cn1", "value-type": "pIC50", "recorded-value": 3.68}
{"compound": "C#C[C@H](CC)Oc1cnc(/C(F)=C/c2ccc(F)c([C@]3(C)CS(=O)(=O)C(C)(C)C(N)=N3)c2)cn1 (single isomer, unassigned)", "value-type": "pIC50", "recorded-value": 4.11}

Q) Would you mind telling me what pIC50 value was observed for CC1(C)C(N)=N[C@](C)(c2cc(/C=C(\F)c3cnc(OCCn4cc(Br)cn4)cn3)ccc2F)CS1(=O)=O ?
A) 4.04

###

# experimental-system: UniProtKB P56817
# assay-comment: In vitro BACE1 cell-based assay (Aβ40 in conditioned medium of cells stably expressing APP, HTRF)
# experimental-conditions: Aβ40 in conditioned media after 24 h incubation
Record form. Attribute: log10 IC50. Fill in for each entry.
Kindly note that the scale is log10 and the underlying IC50 is in nM.

{"compound": "C[C@@H]1COc2nc(/C(F)=C/c3ccc(F)c([C@]4(C)CS(=O)(=O)N(C)C(N)=N4)c3)ncc2O1", "log10 IC50": 2.11}
{"compound": "CN1C(N)=N[C@](C)(c2cc(/C=C(\\F)c3cnc(OCc4ncco4)cn3)cc(F)c2F)CS1(=O)=O", "log10 IC50": 0.60}
{"compound": "Cc1nnc(COc2cnc(/C(F)=C/c3ccc(F)c([C@]4(C)CS(=O)(=O)C(C)(C)C(N)=N4)c3)cn2)o1", "log10 IC50": 1.75}
{"compound": "COc1cc(/C(F)=C/c2ccc(F)c([C@]3(C)CS(=O)(=O)N(C)C(N)=N3)c2)ncc1Cl", "log10 IC50": 2.82}
{"compound": "CN1C(N)=N[C@](C)(c2cc(/C=C(\\F)c3cnc(OCC4COC4)cn3)ccc2F)CS1(=O)=O", "log10 IC50": 2.08}

Batch request: log10 IC50 for each of the following compounds.
1. Cc1cnc(COc2cnc(/C(F)=C/c3ccc(F)c([C@@]4(C)N=C(N)N(C)S(=O)(=O)C45CC5)c3)cn2)o1
2. COC(C)COc1cnc(/C(F)=C/c2ccc(F)c([C@]3(C)CS(=O)(=O)N(C)C(N)=N3)c2)cn1 (stereo partly shown)

A)
1. 2.09
2. 1.36

###

I'd be grateful if you could share measured pIC50 for these entries.
# experimental-system: UniProt:P56817
# assay-comment: In vitro BACE1 cell-based assay (Aβ40 in conditioned medium of cells stably expressing APP, HTRF)
# experimental-conditions: Aβ40 in conditioned media after 24 h incubation
One number for each entry, as −log10 of the molar value.

{"compound": "CN1C(N)=N[C@](C)(c2cc(/C=C(\\F)c3cc4c(cn3)OCO4)ccc2F)CS1(=O)=O [Example 257]", "pIC50": 6.99}
{"compound": "C#CCOc1cnc(/C(F)=C/c2ccc(F)c([C@@]3(C)N=C(N)N(C)S(=O)(=O)C34CC4)c2)cn1 [Example 138]", "pIC50": 7.11}
{"compound": "CC1(C)C(N)=N[C@](C)(c2cc(/C=C(\\F)c3ccc(C(F)(F)F)cn3)ccc2F)CS1(=O)=O [Example 265]", "pIC50": 8.00}
{"compound": "CN1C(N)=N[C@](C)(c2cc(/C=C(\\F)c3ccc(C(F)(F)F)cn3)ccc2F)CS1(=O)=O [Example 244]", "pIC50": 8.10}
{"compound": "COCCOc1cnc(/C(F)=C/c2ccc(F)c([C@@]3(C)N=C(N)[C@@]4(CF)CC[C@@H]3S4(=O)=O)c2)cn1 [Example 130]", "pIC50": 7.22}

Batch lookup, pIC50 per entry.
1. CN1C(N)=N[C@](C)(c2cc(/C=C(\F)c3cc4ccccc4cn3)ccc2F)CS1(=O)=O [Example 259]
2. CN1C(N)=N[C@](C)(c2cc(/C=C(\F)c3ccc(Cl)cn3)cc(F)c2F)CS1(=O)=O [Example 152]

A)
1. 5.95
2. 7.33
